# assay_target: Rac1 (Homo sapiens, UniProt P63000)
# Construct: endogenous in cells; host or cells: human cultured smooth muscle cells, stimulated with PDGF-BB
# protocol_notes: G-LISA assay of intracellular Rac1-GTP in PDGF-BB stimulated human smooth muscle cells
# Type: cell-based
# condition: Concentration 50 µm; 4 hours incubation, then PDGF-BB 10 ng/ml; Rac1-GTP detected relative to control (100), lower = more inhibition; read-out: Rac1 inhibitory activity (% vs control)
measure: remaining activity at 50 µM
Hey, just the number and the unit after it is fine.

Answered examples (8):
Prompt: # query: remaining activity at 50 µM of entry CCOC(=O)CNc1cc(C)nc(NC(C)CCCN(CC)CC)n1 (stereo not drawn)
Completion: 92.9%

Prompt: # query: remaining activity at 50 µM of entry CCN(CC)CCCC(C)Nc1nc(C)cc(Oc2ccc3nc(C)ccc3c2)n1 (stereo not drawn)
Completion: 102%

Prompt: # query: remaining activity at 50 µM of entry CCN(CC)CCCC(C)Nc1nc(C)cc(N2CCOCC2)n1 (stereo not drawn)
Completion: 101%

Prompt: # query: remaining activity at 50 µM of entry CCN(CC)CCCC(C)Nc1cc(C)nc(N2CCOCC2)n1 (stereo not drawn)
Completion: 93.2%

Prompt: # query: remaining activity at 50 µM of entry CCN(CC)CCCC(C)Nc1nc(C)cc(N2CCCCC2)n1 (stereo not drawn)
Completion: 95.8%

Prompt: # query: remaining activity at 50 µM of entry CCN(CC)CCCC(C)Nc1nc(C)cc(Nc2ccc3nc(C)cc(O)c3c2)n1 (stereo not drawn)
Completion: 106%

Prompt: # query: remaining activity at 50 µM of entry COC(=O)C(CC(C)C)Nc1cc(C)nc(Nc2ccc3ncccc3c2)n1 (stereo not drawn)
Completion: 34.2%

Prompt: # query: remaining activity at 50 µM of entry c1cc(NCc2ccc3[nH]ccc3c2)nc(NCc2ccc3[nH]ccc3c2)n1
Completion: 17.1%

---
Prompt: # query: remaining activity at 50 µM of entry CCN(CC)CCCC(C)Nc1nc(C)cc(NCC(=O)O)n1 (stereo not drawn)
Completion: 83.9%
